The origin of these recorded values is PubChem BioAssay (EPA / NIEHS).

assay: APR_HepG2_P-H2AX_1hr: Apredica 1-hour HepG2 Assay for H2AX Phosphorylation (AID 2282673); details: high-content imaging, actives raise or lower the signal
Active and inactive are the calls of the source. The calls were made as follows: active = hit-call score of the fitted dose curve at least 0.9, where 1 is the maximum; inactive = score below 0.9.
Outcomes: active, inactive

>>> assigned_label("CNc1cnn(-c2cccc(C(F)(F)F)c2)c(=O)c1Cl")
"inactive"
>>> assigned_label("CN(C)[C@@H]1C(=O)C(C(N)=O)=C(O)[C@@]2(O)C(=O)C3=C(O)c4c(O)cccc4[C@@](C)(O)[C@H]3[C@H](O)[C@@H]12")
"inactive"
>>> assigned_label("CCC(=NOC/C=C/Cl)C1=C(O)CC(C2CCOCC2)CC1=O (stereo not given)")
"inactive"
>>> assigned_label("CCCCN(CC)c1c([N+](=O)[O-])cc(C(F)(F)F)cc1[N+](=O)[O-]")
"inactive"
>>> assigned_label("CN(C)C(=O)Nc1cccc(C(F)(F)F)c1")
"inactive"
>>> assigned_label("CC[C@H](C)[C@H]1O[C@]2(C=C[C@@H]1C)C[C@@H]1C[C@@H](C/C=C(\\C)[C@@H](O[C@H]3C[C@H](OC)[C@@H](O[C@H]4C[C@H](OC)[C@@H](NC)[C@H](C)O4)[C@H](C)O3)[C@@H](C)/C=C/C=C3\\CO[C@@H]4[C@H](O)C(C)=C[C@@H](C(=O)O1)[C@]34O)O2")
"active"
>>> assigned_label("CSc1nc(NC(C)C)nc(NC(C)C)n1")
"inactive"
>>> assigned_label("CCOP(=S)(OCC)Oc1cc(C)nc(C(C)C)n1")
"inactive"
>>> assigned_label("COc1cc(OC)nc(Sc2cccc(Cl)c2C(=O)O)n1")
"inactive"
>>> assigned_label("CCCCOC(=O)c1ccccc1C(=O)O")
"inactive"
